biological target: PIK3CD (Human) (UniProt O00329); assay: Evaluation of PIK3CD inhibitors on Neutrophil Migration; settings: pmn
Sequence (O00329 whole entry, looked up): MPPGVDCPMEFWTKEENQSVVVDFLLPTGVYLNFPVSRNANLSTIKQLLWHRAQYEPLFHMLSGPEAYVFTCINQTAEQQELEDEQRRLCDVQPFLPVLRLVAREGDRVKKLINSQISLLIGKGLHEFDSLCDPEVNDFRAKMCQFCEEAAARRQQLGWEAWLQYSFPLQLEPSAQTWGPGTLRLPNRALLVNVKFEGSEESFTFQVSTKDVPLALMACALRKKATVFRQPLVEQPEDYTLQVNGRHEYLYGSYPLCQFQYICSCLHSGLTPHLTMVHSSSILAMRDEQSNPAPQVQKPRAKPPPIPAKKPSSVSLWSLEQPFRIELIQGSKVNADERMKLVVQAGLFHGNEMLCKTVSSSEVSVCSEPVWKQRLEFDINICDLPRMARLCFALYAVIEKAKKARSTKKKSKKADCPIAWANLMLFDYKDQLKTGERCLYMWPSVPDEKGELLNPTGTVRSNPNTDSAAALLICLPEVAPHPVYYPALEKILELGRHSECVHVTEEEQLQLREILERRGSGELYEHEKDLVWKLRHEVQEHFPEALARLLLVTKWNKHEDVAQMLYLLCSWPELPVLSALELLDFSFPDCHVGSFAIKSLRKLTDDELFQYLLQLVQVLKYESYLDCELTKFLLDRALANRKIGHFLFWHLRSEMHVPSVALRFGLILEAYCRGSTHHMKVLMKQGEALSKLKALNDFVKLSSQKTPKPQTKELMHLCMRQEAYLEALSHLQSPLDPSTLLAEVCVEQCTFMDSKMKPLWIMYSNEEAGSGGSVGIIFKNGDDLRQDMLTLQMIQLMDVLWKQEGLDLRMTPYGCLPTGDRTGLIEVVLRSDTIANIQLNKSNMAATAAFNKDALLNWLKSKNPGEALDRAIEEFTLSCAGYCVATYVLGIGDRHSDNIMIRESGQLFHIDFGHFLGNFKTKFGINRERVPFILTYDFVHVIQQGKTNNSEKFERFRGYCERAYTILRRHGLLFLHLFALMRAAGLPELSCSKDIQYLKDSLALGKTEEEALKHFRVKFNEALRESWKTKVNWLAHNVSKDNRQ
Could you please report measured EC50 for the items listed next?

Request: Looking for the measured EC50 of COc1ccccc1Cn1c(CSc2ncnc3[nH]cnc23)nc2ccccc2c1=O , can you help?
Response: 200 nM

Request: Looking for the measured EC50 of O=c1c2c(F)cccc2nc(CSc2ncnc3[nH]cnc23)n1-c1ccccc1Cl , can you help?
Response: 2000 nM

Request: Looking for the measured EC50 of O=c1c2ccccc2nc(CSc2ncnc3[nH]cnc23)n1-c1ccccc1Cl , can you help?
Response: 1000 to 5000 nM

Request: Looking for the measured EC50 of O=c1c2ccccc2nc(CSc2ncnc3[nH]cnc23)n1Cc1ccccc1 , can you help?
Response: 2000 nM

Request: Looking for the measured EC50 of O=c1c2c(Cl)cccc2nc(CSc2ncnc3[nH]cnc23)n1-c1ccccc1Cl , can you help?
Response: 300 nM

Request: Looking for the measured EC50 of Cc1cccc2nc(CSc3ncnc4[nH]cnc34)n(-c3ccccc3Cl)c(=O)c12 , can you help?
Response: 300 nM

Request: Looking for the measured EC50 of Cc1cccc2nc(Cn3cnc4c(N)ncnc43)n(-c3ccccc3C(C)C)c(=O)c12 , can you help?
Response: 300 nM

Request: Looking for the measured EC50 of O=c1c2ccccc2nc(CSc2ncnc3[nH]ncc23)n1-c1ccccc1Cl , can you help?
Response: 1000 nM
